Target: angiotensin converting enzyme (ACE) (Homo sapiens, UniProt P12821)
Sequence (P12821 30-1306, species assumed): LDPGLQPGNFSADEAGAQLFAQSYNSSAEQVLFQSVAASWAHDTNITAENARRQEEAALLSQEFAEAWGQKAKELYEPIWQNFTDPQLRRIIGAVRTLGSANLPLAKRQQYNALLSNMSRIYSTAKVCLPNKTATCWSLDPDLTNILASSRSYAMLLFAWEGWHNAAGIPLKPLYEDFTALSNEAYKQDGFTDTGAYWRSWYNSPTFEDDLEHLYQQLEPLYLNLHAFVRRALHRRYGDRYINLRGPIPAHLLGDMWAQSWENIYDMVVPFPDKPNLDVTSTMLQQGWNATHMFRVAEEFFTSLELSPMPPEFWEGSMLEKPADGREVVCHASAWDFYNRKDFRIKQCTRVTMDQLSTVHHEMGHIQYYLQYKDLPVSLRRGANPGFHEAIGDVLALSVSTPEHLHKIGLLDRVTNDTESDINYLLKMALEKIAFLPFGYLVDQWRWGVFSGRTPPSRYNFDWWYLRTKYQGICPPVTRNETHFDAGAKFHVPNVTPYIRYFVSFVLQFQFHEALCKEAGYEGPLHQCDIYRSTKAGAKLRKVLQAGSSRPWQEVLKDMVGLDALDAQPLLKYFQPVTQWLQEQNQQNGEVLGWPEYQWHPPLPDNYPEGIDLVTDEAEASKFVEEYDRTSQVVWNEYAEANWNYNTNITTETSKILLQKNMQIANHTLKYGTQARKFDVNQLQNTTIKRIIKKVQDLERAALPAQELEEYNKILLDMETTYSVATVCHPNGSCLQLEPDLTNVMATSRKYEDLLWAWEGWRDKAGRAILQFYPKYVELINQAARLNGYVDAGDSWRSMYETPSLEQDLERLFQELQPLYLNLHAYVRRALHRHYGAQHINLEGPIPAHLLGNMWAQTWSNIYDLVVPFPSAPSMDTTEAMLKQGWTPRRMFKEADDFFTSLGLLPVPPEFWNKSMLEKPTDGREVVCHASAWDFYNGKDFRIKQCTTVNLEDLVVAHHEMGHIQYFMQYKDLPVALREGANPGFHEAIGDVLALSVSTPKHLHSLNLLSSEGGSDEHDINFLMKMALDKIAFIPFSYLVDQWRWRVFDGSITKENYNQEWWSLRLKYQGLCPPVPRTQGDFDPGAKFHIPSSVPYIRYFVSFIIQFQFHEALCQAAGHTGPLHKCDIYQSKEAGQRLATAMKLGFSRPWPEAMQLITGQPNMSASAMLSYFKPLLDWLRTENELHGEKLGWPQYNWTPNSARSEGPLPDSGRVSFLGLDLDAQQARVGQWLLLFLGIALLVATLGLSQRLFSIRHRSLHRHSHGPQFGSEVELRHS
Assay: ACE inhibition in vitro (IC50)
Format: biochemical

compound	measure-unit	IC50
COC(=O)N[C@@H](CCCCNC(=O)OCc1ccccc1)C(=O)NC[C@H](CC1(C(=O)N[C@@H](Cc2ccc(O)cc2)C(=O)O)CCCC1)C(=O)O	nM	15
CN(C)C(=O)N[C@@H](CCCCN)C(=O)NC[C@H](CC1(C(=O)N[C@@H](Cc2ccc(O)cc2)C(=O)O)CCCC1)C(=O)O	nM	15
CN(C)S(=O)(=O)N[C@@H](CCCCNC(=O)OCc1ccccc1)C(=O)NC[C@H](CC1(C(=O)N[C@@H](Cc2ccc(O)cc2)C(=O)O)CCCC1)C(=O)O	nM	1
CS(=O)(=O)N(CCCN)CC(=O)NC[C@H](CC1(C(=O)N[C@@H](Cc2ccc(O)cc2)C(=O)O)CCCC1)C(=O)O	nM	6
O=C(NCCCC[C@H](NC(=O)N1CCOCC1)C(=O)NC[C@H](CC1(C(=O)N[C@@H](Cc2ccc(O)cc2)C(=O)O)CCCC1)C(=O)O)OCc1ccccc1 [CbzNH C(O) drawing 38]	nM	2
